This collection of values is drawn from patent US20250129095A1.

System: SK-CO-1 cells
Test: SK-CO-1 CTG proliferation assay (120 h) (CRC, G12V)
Format: cell-based
Conditions: Homo sapiens
Would you mind telling me the reported pIC50 of each entry?
Kindly note that pIC50 refers to -log10 of the concentration in mol/L and answer with the value alone.

Lookup result for C[C@H](Oc1cc(Oc2nccs2)nc(-c2noc3c2CCC[C@@]32CCCc3sc(N)c(C#N)c32)n1)[C@@H]1CCCN1C ; measured pIC50: 7.59

Lookup result for C[C@H](Oc1cc(Oc2nccs2)nc(-c2onc3c2CCC[C@@]32CCCc3sc(N)c(C#N)c32)n1)[C@@H]1CCCN1C ; measured pIC50: 7.62

Lookup result for C[C@H](Oc1cc(O[C@@H]2CNC2(C)C)nc(-c2noc3c2CCC[C@@]32CCCc3sc(N)c(C#N)c32)n1)[C@@H]1C[C@@H](F)CN1C ; measured pIC50: 6.40

Lookup result for C[C@H](Oc1cc(OCC2(N(C)C)CC2)nc(-c2noc3c2CCC[C@@]32CCCc3sc(N)c(C#N)c32)n1)[C@@H]1CCCN1C ; measured pIC50: 6.01

Lookup result for C[C@H](Oc1cc(Nc2ncccn2)nc(-c2noc3c2CCC[C@@]32CCCc3sc(N)c(C#N)c32)n1)[C@@H]1CCCN1C ; measured pIC50: 7.22

Lookup result for C[C@H](Oc1cc(Oc2ccon2)nc(-c2noc3c2CCC[C@@]32CCCc3sc(N)c(C#N)c32)n1)[C@@H]1CCCN1C ; measured pIC50: 7.08
